- TEST_SYSTEM: Replicase polyprotein 1ab (Severe acute respiratory syndrome coronavirus) (UniProt P0C6X7)
- ASSAY_EXPLANATION: blockers of SARS 3CLpro peptide cleavage – biochemical, quenched FRET, primary screen (AID 1706)
- TEST_PARAMETERS: recombinant SARS-CoV 3CLpro, at 6 µM, stronger effect = higher value
In all, about 290,000 compounds went through this assay and about 400 (0.14%) were called active. This is one part of a sample in which actives are shown more often than they occur.
Reported values of inhibition for individual entries
A number alone suffices; assume %.

>>> obs_value("Cc1ccccc1-c1nc(CS(=O)(=O)CC(=O)NC(C)c2ccccc2)c(C)o1 (stereo not drawn)")
-0.9
>>> obs_value("Cc1nn2c(=O)cc(COC(=O)c3ccc(NC(=O)C(C)(C)C)cc3)nc2s1")
-0.62
>>> obs_value("COc1ccc(N2CCN(C(=O)CNC(=O)c3ccc(Br)o3)CC2)cc1")
-5.34
>>> obs_value("O=C(CN1C(=O)C2C3C=CC(C3)C2C1=O)NCC1COc2ccccc2O1 (stereo not drawn)")
2.22
>>> obs_value("O=S(=O)(Nc1ccccc1)c1ccc(NS(=O)(=O)c2cccs2)cc1")
2.66

Consider CN1CCN(C(=O)c2ccc(NS(=O)(=O)c3ccccc3)cc2)CC1 . Its measured inhibition is -0.96

Consider CC1CCN(Cc2nc3c(c(=O)n(C)c(=O)n3C)n2CCc2ccccc2)CC1 . Its measured inhibition is 0.08

Consider COC(=O)c1cc(NC(=O)Cc2ccccc2[N+](=O)[O-])ccc1Cl . Its measured inhibition is 13.9

Consider O=C(NCc1ccco1)C(c1ccncc1)N(C(=O)Cn1nnc2ccccc21)c1ccccc1 (stereo not drawn) . Its measured inhibition is 1.89

Consider CN(C(=O)CCNC(=O)Cn1ccc2ccccc2c1=O)c1ccc(Br)cc1 . Its measured inhibition is 1.62

Consider CCC(=O)c1cn(CCOc2ccccc2OC)c2ccccc12 . Its measured inhibition is 1.13

---

- TEST_SYSTEM: Replicase polyprotein 1ab (Severe acute respiratory syndrome coronavirus)
- ASSAY_EXPLANATION: blockers of SARS 3CLpro peptide cleavage – biochemical, quenched FRET, primary screen (AID 1706)
- TEST_PARAMETERS: recombinant SARS-CoV 3CLpro, at 6 µM, stronger effect = higher value
Hit rate of the full screen: of about 290,000 compounds, about 400 (0.14%) were called active. The sample holds actives, similar compounds and a random draw of the others, so the mix is not that of the screen.
VALUE_TYPE: inhibition (%)
A number alone suffices; assume %.

Consider O=C(Nc1ccc(S(=O)(=O)NCC2CCCO2)cc1)c1ccc(F)cc1 (stereo not given) . Its measured inhibition is -0.56

Consider COc1ccc(S(=O)(=O)c2c[nH]c(=S)[nH]c2=O)cc1Cl . Its measured inhibition is -1.78

Consider CC(C)(C)C1CCC(C(=O)NCC(c2cccs2)N2CCOCC2)CC1 (stereo not given) . Its measured inhibition is 4.8

---

- TEST_SYSTEM: Replicase polyprotein 1ab (Severe acute respiratory syndrome coronavirus) (UniProt P0C6X7)
- ASSAY_EXPLANATION: blockers of SARS 3CLpro peptide cleavage – biochemical, quenched FRET, primary screen (AID 1706)
- TEST_PARAMETERS: recombinant SARS-CoV 3CLpro, at 6 µM, stronger effect = higher value
The whole screen tested about 290,000 compounds, of which about 400 (0.14%) were called active. For the sample, actives were picked, then their nearest neighbours and some compounds at random.
VALUE_TYPE: inhibition

Check out these entries, answers already filled in.
>>> obs_value("CCOC(=O)C1CCCN(CCSc2ccc(C)cc2)C1 (centres undefined)")
"-2.08% (inactive)"
>>> obs_value("CC(C)C[C@@H](CO)N1CCN(Cc2ccc(O)cc2)CCC1=O")
"-3.5% (inactive)"
>>> obs_value("COc1cccc(-c2noc(C3CCCN(C(=O)c4ccc(F)cc4)C3)n2)c1 (centres undefined)")
"2.89% (inactive)"

Consider CC(=O)c1ccc(S(=O)(=O)N2CCC(Oc3ccc(-n4cnnn4)cc3)CC2)cc1 . Its measured inhibition is -1.99% (inactive)
